TEST_TARGET: apo-ecTSase (Escherichia coli, UniProt P0A884)
Sequence (P0A884 whole entry): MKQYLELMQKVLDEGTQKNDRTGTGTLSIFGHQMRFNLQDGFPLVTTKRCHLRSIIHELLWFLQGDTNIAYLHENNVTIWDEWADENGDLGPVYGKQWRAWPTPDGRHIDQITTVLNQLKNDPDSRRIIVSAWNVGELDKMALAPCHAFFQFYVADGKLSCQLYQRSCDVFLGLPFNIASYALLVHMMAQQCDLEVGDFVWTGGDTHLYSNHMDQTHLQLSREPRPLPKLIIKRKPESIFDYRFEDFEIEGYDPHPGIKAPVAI
METHOD: biochemical
METRIC: Kd

[[record]]
molecule = "O=c1ccn([C@H]2C[C@H](O)[C@@H](COP(=O)(O)O)O2)c(=O)[nH]1 [dUMP, 2’-deoxyuridine-5’-monophosphate]"
result = "8.5 µM"


----------
TEST_TARGET: ecTSase-Mg^2+ complex (Escherichia coli)
METHOD: Fluorescence assay, dUMP titration into ecTSase pre-incubated with MgCl2
pKd: −log10 of the molar value.
METRIC: pKd

[[record]]
compound = "O=c1ccn([C@H]2C[C@H](O)[C@@H](COP(=O)(O)O)O2)c(=O)[nH]1 [dUMP, 2’-deoxyuridine-5’-monophosphate]"
quantitative_result = 4.85


----------
TEST_TARGET: ecTSase-dUMP-Mg^2+ complex
DETAILS: read-out: KdCH4H4fol; w/ 50 mM MgCl2, 25 °C, calculated using Eq 5
METRIC: Kd (µM)

[[record]]
compound = "Nc1nc2c(c(=O)[nH]1)N1CN(c3ccc(C(=O)N[C@@H](CCC(=O)O)C(=O)O)cc3)CC1CN2 (stereo partly shown)"
metric = "Kd"
quantitative_result = 8

